# System: K562 cells
# measurement.protocol: MTS cell proliferation and viability test, K562 leukemia line
# Assay type: cell-based, human
# assay.context: incubating for 72 hours, read-out: IC50 (concentration which results in a 50% loss of cell proliferation and viability)
value.type: pIC50
Scale for pIC50: -log10 of concentration given in mol/L; no unit attached.

IN: Please respond with reported pIC50 (system K562 cells) for CNC(=O)C1COc2ccc(Nc3ncc4cc(-c5c(Cl)cccc5Cl)c(=O)n(C)c4n3)cc2O1 (racemic) .
OUT: 7.69

====

# System: MDA-MB231 cells
# measurement.protocol: MTS cell proliferation and viability test, MDA-MB231 breast cancer line
# Format: cell-based, human
# assay.context: incubating for 72 hours, read-out: IC50 (concentration which results in a 50% loss of cell proliferation and viability)
Entries annotated with measured pIC50
Scale for pIC50: -log10 of concentration given in mol/L; no unit attached.

Cn1c(=O)c(-c2c(Cl)cccc2Cl)cc2cnc(Nc3ccc4c(c3)COC4)nc21 :: 8.00

Please turn your attention to the following entry.
IN: # return recorded pIC50 for entry CNC(=O)C1COc2ccc(Nc3ncc4cc(-c5c(Cl)cccc5Cl)c(=O)n(C)c4n3)cc2O1 (racemic)
OUT: 6.74
